Target: human mu opioid receptor (Homo sapiens, UniProt P35372)
Sequence (P35372 whole entry): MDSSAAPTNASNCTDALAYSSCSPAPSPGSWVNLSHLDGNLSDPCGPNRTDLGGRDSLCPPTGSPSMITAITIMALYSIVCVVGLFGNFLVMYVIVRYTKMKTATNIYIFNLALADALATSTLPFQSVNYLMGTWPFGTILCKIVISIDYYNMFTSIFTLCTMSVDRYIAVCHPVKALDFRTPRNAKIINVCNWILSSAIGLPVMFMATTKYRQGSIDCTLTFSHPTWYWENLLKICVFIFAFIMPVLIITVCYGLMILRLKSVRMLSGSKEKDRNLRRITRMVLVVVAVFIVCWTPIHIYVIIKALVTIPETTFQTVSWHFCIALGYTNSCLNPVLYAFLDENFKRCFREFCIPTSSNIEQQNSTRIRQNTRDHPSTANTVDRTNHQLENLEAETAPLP
# met = Ki below 4 nM (exclusive); not met = Ki at/above 4 nM

>>> class("CCOC(=O)C1CCN(C(=O)c2cccc([C@H](c3cccc(O)c3)N3C[C@@H](C)N(Cc4ccccc4)C[C@@H]3C)c2)CC1 [Example 122]")
"met"
>>> class("C=CCN1C[C@H](C)N([C@@H](c2cccc(O)c2)c2cccc(C(=O)N3CCN(CCC(=O)OCC)CC3)c2)C[C@H]1C [Example 72]")
"met"
>>> class("C=CCN1C[C@H](C)N([C@@H](c2cccc(O)c2)c2cccc(C(=O)N3CCN(CCCC(=O)O)CC3)c2)C[C@H]1C [Example 75]")
"not met"
>>> class("CCOC(=O)N1CCN(C(=O)c2cccc([C@H](c3cccc(O)c3)N3C[C@@H](C)N(Cc4ccccc4)C[C@@H]3C)c2)CC1 [Example 62]")
"met"
>>> class("C[C@@H]1CN(C(c2cccc(O)c2)c2cccc(C(=O)N3CCCN(CC(=O)O)CC3)c2)[C@@H](C)CN1CC1CC1 (stereo partly drawn)")
"not met"

###

Target: human mu opioid receptor (Homo sapiens, UniProt P35372)
readout: Ki

>>> result("CCOC(=O)CCCCCN1CCCN(C(=O)c2cccc(C(c3cccc(O)c3)N3C[C@@H](C)N(Cc4ccccc4)C[C@@H]3C)c2)CC1 (stereo partly drawn)")
"23.4 nM"
>>> result("C[C@@H]1CN([C@@H](c2cccc(O)c2)c2cccc(C(=O)N3CCCN(CCC(=O)O)CC3)c2)[C@@H](C)CN1CC1CC1")
"22.3 nM"
>>> result("C[C@@H]1CN([C@@H](c2cccc(O)c2)c2cccc(C(=O)N3CCN(CCCCC(=O)O)CC3)c2)[C@@H](C)CN1CC1CC1 [Example 90]")
"409 nM"

###

Test system: seizure-like convulsions in mice
Test: mouse seizure-like convulsions
Type: in vivo
Conditions: 10 mg/kg IV
readout: Seiz. (% 10 mg/kg IV)

>>> number("C[C@@H]1CN([C@@H](c2cccc(O)c2)c2cccc(C(=O)N3CCC(C(=O)O)CC3)c2)[C@@H](C)CN1Cc1ccccc1")
0
>>> number("C=CCN1C[C@H](C)N([C@@H](c2cccc(O)c2)c2cccc(C(=O)N3CCC(NCc4ccc(C(=O)O)cc4)CC3)c2)C[C@H]1C")
0
>>> number("C=CCN1C[C@H](C)N([C@@H](c2cccc(O)c2)c2cccc(C(=O)N3CCN(CCCC(=O)OCC)CC3)c2)C[C@H]1C")
10

###

Target: μ opioid receptor (Rattus norvegicus, UniProt P33535)
Construct: tissue Pel-Freeze Biological Inc. (Rogers, Ark.)
Sequence (P33535 whole entry): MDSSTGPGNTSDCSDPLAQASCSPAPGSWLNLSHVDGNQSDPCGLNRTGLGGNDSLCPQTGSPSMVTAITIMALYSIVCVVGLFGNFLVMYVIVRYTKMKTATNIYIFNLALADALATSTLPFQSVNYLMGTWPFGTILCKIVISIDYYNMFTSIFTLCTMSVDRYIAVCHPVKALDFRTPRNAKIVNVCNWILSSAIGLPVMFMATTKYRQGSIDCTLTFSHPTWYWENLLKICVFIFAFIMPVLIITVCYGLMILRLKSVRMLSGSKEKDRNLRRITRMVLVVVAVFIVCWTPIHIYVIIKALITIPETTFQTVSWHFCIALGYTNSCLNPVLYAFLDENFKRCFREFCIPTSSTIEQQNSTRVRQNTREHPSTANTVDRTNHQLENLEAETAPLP
Assay: radioligand binding, μ opioid receptor, rat brain membranes
Details: cell marked (rat), tritium-labeled DAMGO
readout: Ki (nM)

>>> number("C=CCN1C[C@H](C)N([C@@H](c2cccc(O)c2)c2cccc(C(=O)N3CCCN(CCCCC(=O)O)CC3)c2)C[C@H]1C")
9
>>> number("C=CCN1C[C@H](C)N(C(c2ccc(C(=O)N3CCCN(CCCC(=O)OCC)CC3)cc2)c2cccc(O)c2)C[C@H]1C (some centres unmarked)")
2.6
>>> number("C=CCN1C[C@H](C)N([C@@H](c2cccc(O)c2)c2cccc(C(=O)N3CCCN(CCCC(=O)OCC)CC3)c2)C[C@H]1C")
1.76
>>> number("C=CCN1C[C@H](C)N(C(c2cccc(O)c2)c2cccc(C(=O)N3CCCN(CC(=O)O)CC3)c2)C[C@H]1C (some centres unmarked)")
3.03
>>> number("C[C@@H]1CN([C@@H](c2cccc(O)c2)c2cccc(C(=O)N3CCCN(CCC(=O)O)CC3)c2)[C@@H](C)CN1Cc1ccccc1")
3.9
>>> number("C=CCN1C[C@H](C)N([C@@H](c2cccc(O)c2)c2cccc(C(=O)N3CCCN(CCCCC(=O)OCC)CC3)c2)C[C@H]1C")
1.25
>>> number("C=CCN1C[C@H](C)N(C(c2ccc(C(=O)N3CCCN(CCCC(=O)O)CC3)cc2)c2cccc(O)c2)C[C@H]1C (some centres unmarked)")
16.1
>>> number("C=CCN1C[C@H](C)N(C(c2cccc(O)c2)c2cccc(C(=O)N3CCCNCC3)c2)C[C@H]1C (some centres unmarked)")
1.61
>>> number("CCOC(=O)CCN1CCCN(C(=O)c2cccc([C@H](c3cccc(O)c3)N3C[C@@H](C)N(Cc4ccccc4)C[C@@H]3C)c2)CC1")
0.75
>>> number("C=CCN1C[C@H](C)N([C@@H](c2cccc(O)c2)c2cccc(C(=O)N3CCCN(CCC(=O)OCC)CC3)c2)C[C@H]1C")
0.55
>>> number("C=CCN1C[C@H](C)N([C@@H](c2cccc(O)c2)c2cccc(C(=O)N3CCCN(CCC(=O)O)CC3)c2)C[C@H]1C")
3.89
>>> number("C=CCN1C[C@H](C)N(C(c2cccc(O)c2)c2cccc(C(=O)N3CCCN(CC(=O)OCC)CC3)c2)C[C@H]1C (some centres unmarked)")
3.33
>>> number("C=CCN1C[C@H](C)N(C(c2cccc(O)c2)c2cccc(C(=O)N3CCCN(C)CC3)c2)C[C@H]1C (some centres unmarked)")
1.58
>>> number("C=CCN1C[C@H](C)N([C@@H](c2cccc(O)c2)c2cccc(C(=O)N3CCCN(CCCC(=O)O)CC3)c2)C[C@H]1C")
5.57
